Target: isolated recombinant JAK1 kinase domain (Homo sapiens (Human))
Protocol summary: JAK1 enzyme assay (Caliper LabChip, peptide phosphorylation)
Format: biochemical
Test parameters: isolated recombinant JAK1 kinase domain, 25 μM ATP
pKi: −log10 of the molar value. Structures can show the parent of a compound that is named as a salt.
Quantity measured: pKi

Compound	Numeric result
CN(Cc1ccccc1)C1CCN(c2nc(-c3cc(Cl)ccc3OC(F)F)c(NC(=O)c3cnn4cccnc34)s2)CC1 [Example 201]	8.30
O=C(Nc1cn(CC(=O)N2CCC(O)(c3ccncc3)CC2)nc1-c1cc(Cl)ccc1OC(F)F)c1cnn2cccnc12 [Example 276]	9.64
O=C(Nc1cn(CC(=O)N2CCN(CCO)CC2)nc1-c1cc(Cl)ccc1OC(F)F)c1cnn2cccnc12 [Example 228]	9.33
Nc1nn2cccnc2c1C(=O)Nc1cn(CC(=O)N2CCC(F)(F)C2)nc1-c1cc(Cl)ccc1OC(F)F [Example 282]	9.77
O=C(Nc1cn(CC(=O)N2CCC(N3C[C@@H]4C[C@H]3CO4)CC2)nc1-c1cc(Cl)ccc1OC(F)F)c1cnn2cccnc12 [Example 447]	9.31
CN(CC(F)(F)F)C1CCN(C(=O)C2CCN(c3nc(-c4cc(Cl)ccc4OC(F)F)c(NC(=O)c4cnn5cccnc45)s3)CC2)CC1 [Example 202]	8.96
CN(CCCc1ccccc1)C1CCN(C(=O)Cn2cc(NC(=O)c3cnn4cccnc34)c(-c3cc(Cl)ccc3OC(F)F)n2)CC1 [Example 123]	8.65
CNC1CCN(C(=O)Cn2cc(NC(=O)c3cnn4cccnc34)c(-c3cc(Cl)ccc3OC(F)F)n2)CC1 [Example 83]	8.97
CN(C1CCN(C(=O)Cn2cc(NC(=O)c3cnn4cccnc34)c(-c3cc(Cl)ccc3OC(F)F)n2)CC1)C(Cc1ccccc1)C(F)(F)F (stereo not drawn) [Example 133]	8.19
CN1CCC2(C1)CN(C(=O)Cn1cc(NC(=O)c3cnn4cccnc34)c(-c3cc(Cl)ccc3OC(F)F)n1)C2 [Example 211]	8.96
C[C@H]1COCCN1C1CCN(C(=O)Cn2cc(NC(=O)c3cnn4cccnc34)c(-c3cc(Cl)ccc3OC(F)F)n2)CC1 [Example 451]	9.35
O=C(Nc1cn(CC(=O)N2C[C@H]3CN(CCCN4CCOCC4)C[C@H]3C2)nc1-c1cc(Cl)ccc1OC(F)F)c1cnn2cccnc12 [Example 19]	9.14
CSc1ccc(CNCCn2cc(NC(=O)c3cnn4cccnc34)c(-c3cc(Cl)ccc3OC(F)F)n2)cc1 [Example 346, formate]	9.43
O=C(Nc1cn(C2CCN(CCCN3CCS(=O)(=O)CC3)CC2)nc1-c1cc(Cl)ccc1OC(F)F)c1cnn2cccnc12 [Example 161]	8.91
Nc1nn2cccnc2c1C(=O)Nc1cn(CC(=O)N2CCOC(CO)C2)nc1-c1cc(Cl)ccc1OC(F)F (stereo not drawn) [Example 273]	9.31
O=C(Nc1cn(CC(=O)N2CCC(NCCc3ccc(C(F)(F)F)cc3)CC2)nc1-c1cc(Cl)ccc1OC(F)F)c1cnn2cccnc12 [Example 93]	8.89
CCN1CCN(C(=O)Cn2cc(NC(=O)c3cnn4cccnc34)c(-c3cc(Cl)ccc3OC(F)F)n2)CC1 [Example 233]	9.11
CCCCN(CC(F)(F)F)C1CCN(C(=O)Cn2cc(NC(=O)c3cnn4cccnc34)c(-c3cc(Cl)ccc3OC(F)F)n2)CC1 [Example 115]	8.89
CN(CC1(C#N)CCCCC1)C1CCN(c2nc(-c3cc(Cl)ccc3OC(F)F)c(NC(=O)c3cnn4cccnc34)s2)CC1 [Example 203]	8.26
CN1CCCC(n2cc(NC(=O)c3c(N)nn4cccnc34)c(-c3cc(Cl)ccc3OC(F)F)n2)CC1 (stereo not drawn) [Example 172]	9.06
CN(CCOc1ccccc1Cl)C1CCN(C(=O)Cn2cc(NC(=O)c3cnn4cccnc34)c(-c3cc(Cl)ccc3OC(F)F)n2)CC1 [Example 106]	8.96
O=C(Nc1cn(CCNCc2ncco2)nc1-c1cc(Cl)ccc1OC(F)F)c1cnn2cccnc12 [Example 367]	9.08
CN1CCC(COC(=O)C2(C)CCN(C(=O)Cn3cc(NC(=O)c4cnn5cccnc45)c(-c4cc(Cl)ccc4OC(F)F)n3)CC2)CC1 [Example 389]	9.40
CCCCN(C)C1CCN(c2nc(-c3cc(Cl)ccc3OC(F)F)c(NC(=O)c3cnn4cccnc34)s2)CC1 [Example 199]	8.91
CN(C)C1CCN(c2nc(-c3cc(Cl)ccc3OC(F)F)c(NC(=O)c3cnn4cccnc34)s2)CC1 [Example 188]	8.90
CN(CC1(C)OCCO1)C1CCN(C(=O)Cn2cc(NC(=O)c3cnn4cccnc34)c(-c3cc(Cl)ccc3OC(F)F)n2)CC1 [Example 438]	9.23
CN(Cc1ccc(F)c(Br)c1)C1CCN(C(=O)Cn2cc(NC(=O)c3cnn4cccnc34)c(-c3cc(Cl)ccc3OC(F)F)n2)CC1 [Example 131]	8.97

====

Quick reference: pKi of the listed items.
Target: isolated recombinant JAK1 kinase domain (Homo sapiens (Human), UniProt P23458)
Sequence (P23458 875-1153): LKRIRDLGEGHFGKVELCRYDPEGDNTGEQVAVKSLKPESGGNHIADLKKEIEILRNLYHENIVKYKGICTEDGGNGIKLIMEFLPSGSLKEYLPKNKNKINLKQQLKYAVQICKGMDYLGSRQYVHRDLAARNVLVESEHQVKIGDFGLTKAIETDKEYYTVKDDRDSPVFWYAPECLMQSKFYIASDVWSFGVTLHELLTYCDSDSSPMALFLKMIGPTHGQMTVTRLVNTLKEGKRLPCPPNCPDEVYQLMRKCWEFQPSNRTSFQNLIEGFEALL
Protocol summary: JAK1 enzyme assay (Caliper LabChip, peptide phosphorylation)
Type: biochemical
Test parameters: isolated recombinant JAK1 kinase domain, 25 μM ATP
pKi: −log10 of the molar value.
Quantity measured: pKi

>>> print(df.to_string())
                               smiles_input  quantity_measured  numeric_result
0  O=C(Nc1cn(CC(=O)N2CCN(c3ccccc3)CC2)nc1-c1cc(Cl)ccc1OC(F)F)c1cnn2cccnc12                pKi            9.39
1  O=C(CCCN1CCC(n2cc(NC(=O)c3cnn4cccnc34)c(-c3cc(Cl)ccc3OC(F)F)n2)CC1)NC1CCOCC1                pKi            8.97
2  N#CCCCNC1CCN(C(=O)Cn2cc(NC(=O)c3cnn4cccnc34)c(-c3cc(Cl)ccc3OC(F)F)n2)CC1                pKi            9.31
3  CN(C)CCC1CCN(c2nc(-c3cc(Cl)ccc3OC(F)F)c(NC(=O)c3cnn4cccnc34)s2)CC1                pKi            8.53
4  CN(Cc1ccc(C(C)(C)C)cc1)C1CCN(C(=O)Cn2cc(NC(=O)c3cnn4cccnc34)c(-c3cc(Cl)ccc3OC(F)F)n2)CC1                pKi            9.52
5  O=C(O)CNC1CCN(C(=O)Cn2cc(NC(=O)c3cnn4cccnc34)c(-c3cc(Cl)ccc3OC(F)F)n2)CC1                pKi            9.39
6  CCN(Cc1ccnc(Cl)c1)C(=O)Cn1cc(NC(=O)c2cnn3cccnc23)c(-c2cc(Cl)ccc2OC(F)F)n1                pKi            9.55

====

Target: isolated recombinant JAK2 kinase domain (Homo sapiens (Human), UniProt O60674)
Sequence (O60674 849-1124): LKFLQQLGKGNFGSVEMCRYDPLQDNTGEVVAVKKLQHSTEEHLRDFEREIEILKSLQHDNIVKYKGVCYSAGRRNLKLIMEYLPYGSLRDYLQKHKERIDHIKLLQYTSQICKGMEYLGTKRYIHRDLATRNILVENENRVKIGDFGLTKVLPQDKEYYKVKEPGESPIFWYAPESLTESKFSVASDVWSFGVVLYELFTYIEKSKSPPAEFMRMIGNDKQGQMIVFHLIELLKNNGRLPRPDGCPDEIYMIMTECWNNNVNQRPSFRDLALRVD
Protocol summary: JAK2 enzyme assay (Caliper LabChip, peptide phosphorylation)
Test parameters: 25 μM ATP
Recorded Ki, one value per entry.
Quantity measured: Ki (nM)

                                   molecule  numeric_result
0  CCN1CC2CN(C(=O)Cn3cc(NC(=O)c4c(N)nn5cccnc45)c(-c4cc(Cl)ccc4OC(F)F)n3)CC2C1 (stereo not drawn) [Example 11]             0.3
1  Nc1nn2cccnc2c1C(=O)Nc1cn(CC(=O)N2CCC(N3CC[C@@H](O)C3)CC2)nc1-c1cc(Cl)ccc1OC(F)F [Example 76]            0.52
2  C=CCN(CCOc1ccc(C)cc1)C1CCN(C(=O)Cn2cc(NC(=O)c3cnn4cccnc34)c(-c3cc(Cl)ccc3OC(F)F)n2)CC1 [Example 109]             7.3
3  O=C(CCCN1CCC(n2cc(NC(=O)c3cnn4cccnc34)c(-c3cc(Cl)ccc3OC(F)F)n2)CC1)NC1COC1 [Example 153]            0.27
4  CN(CC1(C#N)CCCCC1)C1CCN(C(=O)Cn2cc(NC(=O)c3cnn4cccnc34)c(-c3cc(Cl)ccc3OC(F)F)n2)CC1 [Example 114]            1.34
5  O=C(Nc1cn(CC(=O)N2CCC3(CCN(CC4CCN(C(=O)OCc5ccccc5)CC4)C3)CC2)nc1-c1cc(Cl)ccc1OC(F)F)c1cnn2cccnc12 [Example 226]            1.11

====

Quick reference for IV Mouse CL, % of liver blood flow among some compounds
Protocol summary: Clearance assay: mouse intravenous (IV) clearance
Type: in vivo
Test parameters: female BALB/c mice, single IV dose of 1 mg/kg; clearance as % of mouse liver blood flow
Quantity measured: IV Mouse CL, % of liver blood flow

>>> df
                                   compound  result
0  O=C(Nc1cn(CC(=O)N2CC=CCC2)nc1-c1cc(Cl)ccc1OC(F)F)c1cnn2cccnc12 [Example 284]   >100%
1  CN(CCc1ccccc1)C1CCN(C(=O)Cn2cc(NC(=O)c3cnn4cccnc34)c(-c3cc(Cl)ccc3OC(F)F)n2)CC1 [Example 85]     61%
2  O=C(Nc1cn(CC(=O)N2CCC(O)CC2)nc1-c1cc(Cl)ccc1OC(F)F)c1cnn2cccnc12 [Example 278]   >100%
